human TRH-DE (Homo sapiens, UniProt Q9UKU6): reported IC50 for various molecules.
readout-name: IC50 (nM)

[
  {
    "molecule": "C[C@@H]1CCn2nc3c(c2C(=O)N1C1CC2(C1)CN(S(=O)(=O)c1ccccc1F)C2)CCC3",
    "reported-result": 14
  },
  {
    "molecule": "COc1nc2c(cc1F)C(=O)N(C1CC3(C1)CN(S(=O)(=O)c1ccccc1F)C3)[C@H](C)CO2",
    "reported-result": 16
  },
  {
    "molecule": "COc1ccc2c(n1)OC[C@@H](C)N(C1CC3(C1)CN(S(=O)(=O)c1ccccc1F)C3)C2=O",
    "reported-result": 8
  },
  {
    "molecule": "Cc1nn(C2CC2)c2c1C(=O)N(C1CC3(C1)CN(S(=O)(=O)c1ccccc1F)C3)[C@H](C)CO2",
    "reported-result": 11
  },
  {
    "molecule": "CC1CCc2nc(C3(F)CC3)sc2C(=O)N1C1CC2(C1)CN(S(=O)(=O)c1ccccc1F)C2 (racemic)",
    "reported-result": 4
  },
  {
    "molecule": "C[C@@H]1COc2cc(N(C)C3CCCC3)ncc2C(=O)N1C1CC2(C1)CN(S(=O)(=O)c1ccccc1F)C2",
    "reported-result": 1
  },
  {
    "molecule": "CC1CCC(=O)N(C2CC3(C2)CN(S(=O)(=O)c2ccccc2F)C3)C(C)C1 (racemic)",
    "reported-result": 124
  },
  {
    "molecule": "Cc1nn2c(c1C)C(=O)N(C1CC3(C1)CN(S(=O)(=O)c1ccccc1F)C3)[C@H](C)CC2",
    "reported-result": 24
  },
  {
    "molecule": "CC1(O)c2cnccc2C(=O)N1C1CC2(C1)CN(S(=O)(=O)c1ccccc1F)C2 (racemic)",
    "reported-result": 124
  },
  {
    "molecule": "C[C@@H]1COc2cc(N(C)CC3CCCCC3)ncc2C(=O)N1C1CC2(C1)CN(S(=O)(=O)c1ccccc1F)C2",
    "reported-result": 1
  },
  {
    "molecule": "C[C@@H]1COc2nc(C3(C(F)(F)F)CC3)sc2C(=O)N1C1CC2(C1)CN(S(=O)(=O)c1ccccc1F)C2",
    "reported-result": 5
  },
  {
    "molecule": "Cc1nc(Br)n2c1C(=O)N(C1CC3(C1)CN(S(=O)(=O)c1ccccc1F)C3)[C@H](C)CC2",
    "reported-result": 46
  },
  {
    "molecule": "C[C@@H]1CNc2nc(N3C[C@H]4C[C@H]4C3)ccc2C(=O)N1C1CC2(C1)CN(S(=O)(=O)c1ccccc1F)C2",
    "reported-result": 1
  },
  {
    "molecule": "C[C@@H]1CNc2ncc(C(F)(F)F)cc2C(=O)N1C1CC2(C1)CN(S(=O)(=O)c1ccccc1[N+](=O)[O-])C2",
    "reported-result": 61
  },
  {
    "molecule": "COC1CCN(c2cc3c(cn2)C(=O)N(C2CC4(C2)CN(S(=O)(=O)c2ccccc2F)C4)[C@H](C)CO3)CC1",
    "reported-result": 2
  }
]

###

measurement-target: human TRH-DE (Homo sapiens)
Sequence (Q9UKU6 1-1069): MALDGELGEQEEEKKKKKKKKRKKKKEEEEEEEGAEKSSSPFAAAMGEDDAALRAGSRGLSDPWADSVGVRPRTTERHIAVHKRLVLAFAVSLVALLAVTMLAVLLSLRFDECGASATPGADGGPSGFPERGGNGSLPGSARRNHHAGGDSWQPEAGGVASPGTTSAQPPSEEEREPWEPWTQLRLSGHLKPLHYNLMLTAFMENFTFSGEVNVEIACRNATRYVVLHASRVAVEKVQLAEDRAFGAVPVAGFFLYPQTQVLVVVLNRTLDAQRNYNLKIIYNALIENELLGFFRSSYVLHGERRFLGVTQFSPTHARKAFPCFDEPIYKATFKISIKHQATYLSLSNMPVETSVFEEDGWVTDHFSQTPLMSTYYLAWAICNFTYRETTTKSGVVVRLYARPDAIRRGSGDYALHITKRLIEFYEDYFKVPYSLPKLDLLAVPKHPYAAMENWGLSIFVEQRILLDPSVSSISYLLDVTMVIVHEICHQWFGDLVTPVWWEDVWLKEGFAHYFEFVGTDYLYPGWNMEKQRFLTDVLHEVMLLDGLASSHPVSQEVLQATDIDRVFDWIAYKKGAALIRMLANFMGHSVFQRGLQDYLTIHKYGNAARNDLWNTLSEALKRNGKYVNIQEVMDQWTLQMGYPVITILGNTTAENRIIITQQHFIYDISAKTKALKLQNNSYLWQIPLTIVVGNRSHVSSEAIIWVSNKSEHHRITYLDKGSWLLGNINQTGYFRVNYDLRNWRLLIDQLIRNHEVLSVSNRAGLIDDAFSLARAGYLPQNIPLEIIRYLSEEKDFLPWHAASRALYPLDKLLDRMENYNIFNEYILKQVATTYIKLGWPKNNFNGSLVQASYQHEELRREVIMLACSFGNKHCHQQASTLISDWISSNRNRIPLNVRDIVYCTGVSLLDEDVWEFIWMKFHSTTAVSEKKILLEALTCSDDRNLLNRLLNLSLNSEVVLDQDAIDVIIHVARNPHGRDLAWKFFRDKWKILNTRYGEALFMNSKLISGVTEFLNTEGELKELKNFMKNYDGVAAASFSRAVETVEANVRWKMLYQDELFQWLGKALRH
pIC50: −log10 of the molar value.
# pIC50 values compiled below

[
  {
    "compound": "C[C@@H]1Cn2nc(C3CC3)cc2C(=O)N1C1CC2(C1)CN(S(=O)(=O)c1ccccc1F)C2",
    "pIC50": 7.96
  },
  {
    "compound": "CC1CSCC(=O)N1C1CC2(C1)CN(S(=O)(=O)c1ccccc1F)C2 (stereo not drawn)",
    "pIC50": 6.61
  },
  {
    "compound": "Cc1cccc(S(=O)(=O)N2CC3(CC(N4C(=O)c5cccnc5OCC4C)C3)C2)c1 (racemic)",
    "pIC50": 6.49
  },
  {
    "compound": "C[C@@H]1COc2nc(Cl)ncc2C(=O)N1C1CC2(C1)CN(S(=O)(=O)c1ccccc1F)C2",
    "pIC50": 7.89
  },
  {
    "compound": "C[C@@H]1COc2nc(O[C@H]3CCOC3)ncc2C(=O)N1C1CC2(C1)CN(S(=O)(=O)c1ccccc1F)C2",
    "pIC50": 7.85
  },
  {
    "compound": "CC1c2cc(F)cnc2C(=O)N1C1CC2(C1)CN(S(=O)(=O)c1ccccc1F)C2 (racemic) [Example 292]",
    "pIC50": 6.81
  },
  {
    "compound": "C[C@@H]1CCn2ncc(Cl)c2C(=O)N1C1CC2(C1)CN(S(=O)(=O)c1ccccc1F)C2",
    "pIC50": 7.44
  },
  {
    "compound": "C[C@@H]1COc2nn(C)c(C3CC3)c2C(=O)N1C1CC2(C1)CN(S(=O)(=O)c1ccccc1F)C2",
    "pIC50": 7.13
  },
  {
    "compound": "C[C@@H]1COc2ncc(Cl)cc2C(=O)N1C1CC2(C1)CN(S(=O)(=O)c1ccccc1F)C2",
    "pIC50": 8.52
  }
]

###

measurement-target: human TRH-DE (Homo sapiens)
Sequence (Q9UKU6 1-1069): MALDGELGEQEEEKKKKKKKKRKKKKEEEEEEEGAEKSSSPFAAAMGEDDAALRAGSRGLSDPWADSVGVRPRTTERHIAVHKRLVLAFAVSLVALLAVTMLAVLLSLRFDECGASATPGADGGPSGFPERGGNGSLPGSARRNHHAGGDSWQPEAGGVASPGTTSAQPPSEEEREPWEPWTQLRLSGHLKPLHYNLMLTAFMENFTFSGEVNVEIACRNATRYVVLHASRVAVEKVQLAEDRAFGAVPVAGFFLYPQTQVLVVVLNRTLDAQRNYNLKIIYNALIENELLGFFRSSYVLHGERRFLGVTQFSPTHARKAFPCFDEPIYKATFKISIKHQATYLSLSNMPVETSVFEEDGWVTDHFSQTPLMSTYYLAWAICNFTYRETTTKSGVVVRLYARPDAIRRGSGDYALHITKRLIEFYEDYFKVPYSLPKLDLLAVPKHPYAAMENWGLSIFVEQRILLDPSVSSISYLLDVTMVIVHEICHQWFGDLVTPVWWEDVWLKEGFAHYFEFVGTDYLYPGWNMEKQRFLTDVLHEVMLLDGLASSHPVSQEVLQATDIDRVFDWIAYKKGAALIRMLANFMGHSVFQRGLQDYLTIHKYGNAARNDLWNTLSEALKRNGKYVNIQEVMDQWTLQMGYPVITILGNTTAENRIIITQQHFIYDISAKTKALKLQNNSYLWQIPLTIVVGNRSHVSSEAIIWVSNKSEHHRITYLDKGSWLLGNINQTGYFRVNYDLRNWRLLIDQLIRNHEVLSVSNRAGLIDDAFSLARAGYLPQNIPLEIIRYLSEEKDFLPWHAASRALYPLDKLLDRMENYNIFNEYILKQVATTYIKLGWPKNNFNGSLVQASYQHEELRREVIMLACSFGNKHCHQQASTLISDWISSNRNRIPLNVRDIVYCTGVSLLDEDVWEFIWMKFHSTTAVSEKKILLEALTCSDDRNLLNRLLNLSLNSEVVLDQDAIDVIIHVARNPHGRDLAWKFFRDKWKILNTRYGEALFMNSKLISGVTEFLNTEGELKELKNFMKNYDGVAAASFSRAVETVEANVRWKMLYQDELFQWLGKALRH
readout-name: IC50 (nM)

[
  {
    "compound": "C[C@@H]1CCn2nc(F)c(C3CC3)c2C(=O)N1C1CC2(C1)CN(S(=O)(=O)c1ccccc1F)C2 [Example 320]",
    "reported-result": 72
  },
  {
    "compound": "CCC1c2ccccc2C(=O)N1C1CC2(C1)CN(S(=O)(=O)c1cc(C)ccc1F)C2 (racemic) [Example 273]",
    "reported-result": 63
  },
  {
    "compound": "C[C@@H]1CCc2nc(C(C)(F)F)sc2C(=O)N1C1CC2(C1)CN(S(=O)(=O)c1ccccc1F)C2 [Example 91]",
    "reported-result": 8
  },
  {
    "compound": "Cc1onc2c1C=C[C@@H](C)N(C1CC3(C1)CN(S(=O)(=O)c1ccccc1F)C3)C2=O [Example 130]",
    "reported-result": 136
  },
  {
    "compound": "C[C@@H]1CCn2c(cnc2C2CC2)C(=O)N1C1CC2(C1)CN(S(=O)(=O)c1ccccc1F)C2 [Example 322]",
    "reported-result": 7
  },
  {
    "compound": "CCC(=O)N1C[C@@H](C)N(C2CC3(C2)CN(S(=O)(=O)c2ccccc2F)C3)C(=O)c2ncccc21 [Example 303]",
    "reported-result": 82
  },
  {
    "compound": "C[C@@H]1COc2ncc(Br)cc2C(=O)N1C1CC2(C1)CN(S(=O)(=O)c1ccccc1F)C2 [Example 171]",
    "reported-result": 7
  }
]

Recorded values, source patent US20260132127A1.
